Target: Bifunctional epoxide hydrolase 2 (Homo sapiens)
Sequence (P34913 whole entry): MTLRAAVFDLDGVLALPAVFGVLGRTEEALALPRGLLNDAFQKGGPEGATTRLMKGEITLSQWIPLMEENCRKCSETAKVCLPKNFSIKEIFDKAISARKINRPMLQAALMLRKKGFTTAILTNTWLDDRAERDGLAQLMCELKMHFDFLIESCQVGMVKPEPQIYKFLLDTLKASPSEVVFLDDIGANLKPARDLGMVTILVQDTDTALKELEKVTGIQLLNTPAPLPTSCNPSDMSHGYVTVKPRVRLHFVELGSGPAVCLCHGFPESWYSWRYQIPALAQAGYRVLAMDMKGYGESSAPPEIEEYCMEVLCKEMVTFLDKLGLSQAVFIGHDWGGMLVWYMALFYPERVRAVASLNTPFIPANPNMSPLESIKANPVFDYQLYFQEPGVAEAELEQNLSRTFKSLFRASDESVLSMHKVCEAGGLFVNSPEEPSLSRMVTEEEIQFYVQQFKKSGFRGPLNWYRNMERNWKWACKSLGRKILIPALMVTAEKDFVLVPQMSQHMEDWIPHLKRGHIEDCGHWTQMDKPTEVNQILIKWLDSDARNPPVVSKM
Assay: Inhibition of human soluble epoxide hydrolase
reported endpoint: IC50

> print(dat)
                                   compound  measured.result
1  O=C(c1ccc(C(F)(F)F)cc1)N1CCC2(CCc3ccccc3O2)CC1             4 nM
2  O=C1CC2(CCN(C(=O)N[C@H]3C[C@@H]3c3ccccc3)CC2)Oc2ccccc21             3 nM
3  CS(=O)(=O)c1ccc2c(c1)CCC1(CCN(C(=O)N[C@H]3C[C@@H]3c3ccccc3)CC1)O2             3 nM
4  CS(=O)(=O)c1ccc2c(c1)CCC1(CCCN(C(=O)N[C@H]3C[C@@H]3c3ccccc3)CC1)O2 (relative stereo)            11 nM
5  O=C1CC2(CCN(C(=O)NC3CCc4ccccc4C3)CC2)Oc2ccccc21 (racemic)             5 nM
6  O=C1CC2(CCN(C(=O)N[C@H]3C[C@@H]3c3ccccc3)CC2)Oc2ccccc21 (relative stereo)            11 nM
7  O=C1CC2(CCN(C(=O)N[C@H]3C[C@@H]3c3ccccc3)CC2)Oc2ccc(-c3ccncc3)cc21 (racemic)             1 nM

All values here come from ChEMBL document CHEMBL1137005.
